Molecular target: somatostatin receptors (Rattus norvegicus)
Construct: endogenous in cells; host or cells: AR42J rat pancreatic tumor cell membranes
Sequence (P30680 whole entry): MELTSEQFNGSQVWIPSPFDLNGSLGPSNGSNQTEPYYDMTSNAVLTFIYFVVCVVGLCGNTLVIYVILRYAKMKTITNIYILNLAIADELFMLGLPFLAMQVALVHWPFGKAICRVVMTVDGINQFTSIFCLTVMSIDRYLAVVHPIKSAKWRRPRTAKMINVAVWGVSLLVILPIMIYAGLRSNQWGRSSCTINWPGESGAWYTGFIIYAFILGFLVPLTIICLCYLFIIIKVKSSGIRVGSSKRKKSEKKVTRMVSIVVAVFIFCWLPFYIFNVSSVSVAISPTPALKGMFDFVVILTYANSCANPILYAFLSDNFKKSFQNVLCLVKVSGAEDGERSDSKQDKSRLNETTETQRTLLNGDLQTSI
Test: Inhibition of binding of (125I-Tyr11)somatostatin-14 to AR42J rat pancreatic tumor cell membranes
Settings: peptides not metal-complexed; displacement of (125I-Tyr11)somatostatin-14, AR42J cell membranes
Starred links: 1 amine or outer side, 2 acyl side, 3 side chain; linkers in the order of their positions; H or OH if unused. Positions of bridges follow the written chain, without caps; N, C: chain ends. Non-standard residues stand in square brackets, D forms with d. Residues, ends and D or L forms follow the SMILES beside them. Chains are numbered I, II in the order given. *: point of attachment. DTPA = O=C(O)CN(CCN(CC(=O)O)CC(=O)O)CCN(CC(=O)O)CC(=O)*; X1 = O=C(C(=O)*)[C@@H](O)[C@H](O)[C@@H](O)CO; Phe(4-Cl) = N[C@@H](Cc1ccc(Cl)cc1)C(=O)O; 2Nal = N[C@@H](Cc1ccc2ccccc2c1)C(=O)O; d2Nal = N[C@H](Cc1ccc2ccccc2c1)C(=O)O; εLys = N[C@@H](CCCCN[*:1])C(=O)[*:2]; NMeF = CN[C@@H](Cc1ccccc1)C(=O)O; hCys = N[C@@H](CCS)C(=O)O; X2 = O=C(C[*:1])[*:2]
measure: pKi
// pKi here means minus log10 of the molar concentration (mol/L)

Task: Give the value of pKi reported for the following: C[C@H](N)C(=O)N[C@@H](CCCCN)C(=O)N[C@@H](CS)C(=O)NCC(=O)NCC(=O)NCC(=O)N[C@H](Cc1ccccc1)C(=O)N[C@@H](Cc1ccc(Cl)cc1)C(=O)N[C@@H](Cc1ccc(O)cc1)C(=O)N[C@H](Cc1c[nH]c2ccccc12)C(=O)N[C@@H](CCCCN)C(=O)N[C@H](C(=O)N[C@@H](Cc1ccccc1)C(=O)N[C@H](C(N)=O)[C@@H](C)O)[C@@H](C)O [AKCGGGFD.Cpa.YWD KTFT.amide] (H-AKCGGG[dF][Phe(4-Cl)]Y[dW]KTFT-NH2)
Result: 8.85

Task: Give the value of pKi reported for the following: C[C@@H](O)[C@H](NC(=O)[C@H](Cc1ccccc1)NC(=O)[C@@H](NC(=O)[C@H](CCCCN)NC(=O)[C@@H](Cc1c[nH]c2ccccc12)NC(=O)[C@H](Cc1ccc(O)cc1)NC(=O)[C@H](Cc1ccc(Cl)cc1)NC(=O)[C@@H](Cc1ccccc1)NC(=O)C(=O)[C@@H](O)[C@H](O)[C@@H](O)CO)[C@@H](C)O)C(=O)NCCCC[C@H](N)C(=O)NCC(=O)N[C@@H](CS)C(N)=O (X1-[dF][Phe(4-Cl)]Y[dW]KTFT[εLys]GC-NH2)
Result: 8.57

Task: Give the value of pKi reported for the following: C[C@@H](O)[C@H](NC(=O)[C@H](Cc1ccccc1)NC(=O)[C@@H](NC(=O)[C@H](CCCCN)NC(=O)[C@@H](Cc1c[nH]c2ccccc12)NC(=O)[C@H](Cc1ccc(O)cc1)NC(=O)[C@H](Cc1ccc(Cl)cc1)NC(=O)[C@H](N)Cc1ccccc1)[C@@H](C)O)C(=O)N[C@@H](CS)C(=O)NCC(=O)N[C@@H](CS)C(N)=O [FD.Cpa.YWD KTFTCGC.amide] (H-[dF][Phe(4-Cl)]Y[dW]KTFTCGC-NH2)
Result: 8.32

Task: Give the value of pKi reported for the following: C[C@@H](O)[C@H](NC(=O)[C@H](Cc1ccc2ccccc2c1)NC(=O)[C@@H](NC(=O)[C@H](CCCCN)NC(=O)[C@@H](Cc1c[nH]c2ccccc12)NC(=O)[C@H](Cc1ccc(O)cc1)NC(=O)[C@H](Cc1ccc(Cl)cc1)NC(=O)[C@@H](Cc1ccc2ccccc2c1)NC(=O)CN(CCN(CCN(CC(=O)O)CC(=O)O)CC(=O)O)CC(=O)O)[C@@H](C)O)C(=O)NCCCC[C@H](N)C(=O)NCC(=O)N[C@@H](CS)C(=O)N[C@@H](CCCCN)C(=O)N[C@@H](CCCCN)C(N)=O ({DTPA}-[d2Nal][Phe(4-Cl)]Y[dW]KT[2Nal]T[εLys]GCKK-NH2)
Result: 8.70

Task: Give the value of pKi reported for the following: CC(C)[C@@H]1NC(=O)[C@H](CCCCN)NC(=O)[C@@H](Cc2c[nH]c3ccccc23)NC(=O)[C@H](Cc2ccc(O)cc2)NC(=O)[C@H](Cc2ccccc2)N(C)C(=O)[C@H](CCSCC(=O)NCC(=O)NCC(=O)N[C@@H](CS)C(=O)N[C@@H](CCCCN)C(=O)N[C@@H](CCCCN)C(N)=O)NC1=O (I: cyclo([NMeF]Y[dW]KV[hCys]) / II: GGCKK-NH2; linker I:6-II:N via X2)
Result: 9.59
